# test target: Cyclin-dependent kinase 2/cyclin E (Homo sapiens, UniProt P24941)
# assay notes: Inhibition of CDK2/Cyclin E (unknown origin)
# Format: protein-complex assay
attribute measured: IC50 (nM)

Worked cases, answers included:
COc1nc2cnc(NC3CCN(S(C)(=O)=O)CC3)nc2n(C2CCCC2)c1=O :: 160
CN1CCN(c2ccc(Nc3ncc4nc(O)c(=O)n(C5CCCC5)c4n3)cc2)CC1 :: 1600
CCS(=O)(=O)N1CCC(Nc2ncc3nc(O)c(=O)n(C4CCCC4)c3n2)CC1 :: 1040

(A) CS(=O)(=O)N1CCC(Nc2ncc3nc(NN)c(=O)n(C4CCCC4)c3n2)CC1
(B) CS(=O)(=O)N1CCC(Nc2ncc3nc(O)c(=O)n(C4CCCC4)c3n2)CC1
Select the item with the higher value of IC50 from the options A and B listed. Lab log: write the label of the selected item as the result.
B

###

# test target: CDK6/cyclin D3 (Homo sapiens)
# Sequence (P30281 whole entry): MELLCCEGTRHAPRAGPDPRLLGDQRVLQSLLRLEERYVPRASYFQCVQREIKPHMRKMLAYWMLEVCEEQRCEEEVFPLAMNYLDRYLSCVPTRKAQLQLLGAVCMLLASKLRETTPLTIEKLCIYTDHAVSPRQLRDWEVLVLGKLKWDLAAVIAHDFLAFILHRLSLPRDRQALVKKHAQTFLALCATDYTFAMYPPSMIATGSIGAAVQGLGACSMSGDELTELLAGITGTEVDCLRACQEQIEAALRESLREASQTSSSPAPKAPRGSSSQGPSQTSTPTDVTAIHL
# Sequence (Q00534 whole entry): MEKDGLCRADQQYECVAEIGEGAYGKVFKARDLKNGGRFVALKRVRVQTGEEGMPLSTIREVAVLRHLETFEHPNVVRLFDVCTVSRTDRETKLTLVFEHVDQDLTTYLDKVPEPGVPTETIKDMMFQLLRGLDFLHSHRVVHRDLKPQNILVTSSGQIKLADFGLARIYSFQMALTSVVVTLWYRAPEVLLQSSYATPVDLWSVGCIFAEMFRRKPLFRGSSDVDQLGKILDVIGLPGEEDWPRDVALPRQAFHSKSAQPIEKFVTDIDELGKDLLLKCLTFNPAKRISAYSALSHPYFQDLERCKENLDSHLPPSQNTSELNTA
# assay notes: Inhibition of CDK6/Cyclin D3 (unknown origin)
attribute measured: pIC50
Hey, just a heads up that pIC50 is the negative log base 10 of the concentration in molar.

Can you look up the measured pIC50 of CS(=O)(=O)N1CCC(Nc2ncc3nc(NN)c(=O)n(C4CCCC4)c3n2)CC1 for me?
6.34

###

# test target: Cyclin-dependent kinase 2/cyclin E (Homo sapiens) (UniProt P24864+P24941+O96020)
# assay notes: Inhibition of CDK2/Cyclin E (unknown origin) at 500 nM
# Format: protein-complex assay
attribute measured: inhibition (%)

Worked cases, answers included:
COc1nc2cnc(NC3CCN(S(C)(=O)=O)CC3)nc2n(C2CCOCC2)c1=O :: 45.8
CN(C)S(=O)(=O)N1CCC(Nc2nc3cnc(NCC(F)F)nc3n(C3CCCC3)c2=O)CC1 :: 38.2
CS(=O)(=O)N1CCC(Nc2nc3cnc(NN)nc3n(C3CCCC3)c2=O)CC1 :: 26.8

(A) CS(=O)(=O)N1CCC(Nc2ncc3c(n2)n(C2CCCC2)c(=O)c2nncn23)CC1
(B) CCNc1ncc2nc(NC3CCN(S(C)(=O)=O)CC3)c(=O)n(C3CCCC3)c2n1
(C) CS(=O)(=O)N1CCC(Nc2ncc3nc(O)c(=O)n(C4CCOCC4)c3n2)CC1
(D) CCC(CC)n1c(=O)c(OC)nc2cnc(NC3CCN(S(C)(=O)=O)CC3)nc21
(E) CCNc1nc2cnc(NC3CCN(S(C)(=O)=O)CC3)nc2n(C2CCCC2)c1=O
Rank the items in ascending order with respect to inhibition. Please reply with the labels ordered as requested. Many thanks.
C, A, E, B, D
(C: 9.3%, A: 14.2%, E: 20.3%, B: 34.4%, D: 79.6%)

(a) CN1CCN(c2ccc(Nc3ncc4nc(O)c(=O)n(C5CCCC5)c4n3)cc2)CC1
(b) COc1nc2cnc(NC3CCN(S(C)(=O)=O)CC3)nc2n(C2CCCC2)c1=O
Kindly compare a with b and tell me which has the lower inhibition figure. Lab log: write the label of the selected item as the result.
a
(a: 48.3%, b: 82.4%)

###

# test target: Cyclin-dependent kinase 2/cyclin E (Homo sapiens, UniProt P24941)
# assay notes: Inhibition of CDK2/Cyclin E (unknown origin)
pIC50: −log10 of the molar value.
attribute measured: pIC50

Worked cases, answers included:
CCC(CC)n1c(=O)c(OC)nc2cnc(NC3CCN(S(C)(=O)=O)CC3)nc21 :: 6.46
COc1nc2cnc(NC3CCN(S(C)(=O)=O)CC3)nc2n(C2CCOCC2)c1=O :: 5.77

(1) CCC(C)n1c(=O)c(OC)nc2cnc(NC3CCN(S(C)(=O)=O)CC3)nc21 (centres undefined)
(2) CS(=O)(=O)c1ccc(Nc2ncc3nc(NN)c(=O)n(C4CCCC4)c3n2)cc1
Kindly compare 1 with 2 and tell me which has the lower pIC50 figure. Lab log: write the label of the selected item as the result.
2
(2: 6.04, 1: 6.30)

###

# Tested on: MV4-11
# assay notes: Antiproliferative activity against human MV4-11 cells assessed as inhibition of cell proliferation
# Format: functional, cell-based
pIC50: −log10 of the molar value.
attribute measured: pIC50

CN1CCN(c2ccc(Nc3ncc4nc(O)c(=O)n(C5CCCC5)c4n3)cc2)CC1 :: 5.31
COc1nc2cnc(NC3CCN(S(C)(=O)=O)CC3)nc2n(C2CCCC2)c1=O :: 5.59
CS(=O)(=O)N1CCC(Nc2ncc3nc(O)c(=O)n(C4CCCC4)c3n2)CC1 :: 4.86
CCC(C)n1c(=O)c(OC)nc2cnc(NC3CCN(S(C)(=O)=O)CC3)nc21 (stereo not given) :: 5.11
COc1nc2cnc(NC3CCN(S(C)(=O)=O)CC3)nc2n(C2CCOCC2)c1=O :: 5.37

(A) CCC(CC)n1c(=O)c(OC)nc2cnc(NC3CCN(S(C)(=O)=O)CC3)nc21
(B) CCS(=O)(=O)N1CCC(Nc2ncc3nc(O)c(=O)n(C4CCCC4)c3n2)CC1
(C) CS(=O)(=O)c1ccc(Nc2ncc3nc(NN)c(=O)n(C4CCCC4)c3n2)cc1
(D) CS(=O)(=O)N1CCC(Nc2ncc3nc(NN)c(=O)n(C4CCCC4)c3n2)CC1
(E) C[C@@]1(O)CCC[C@H]1n1c(=O)c(C(F)F)cc2cnc(NC3CCN(S(C)(=O)=O)CC3)nc21 [EBVACICLIB]
Rank the items in ascending order with respect to pIC50. Please reply with the labels ordered as requested. Many thanks.
B, A, D, C, E

###

# test target: Cyclin-dependent kinase 2/cyclin E (Homo sapiens) (UniProt P24864+P24941+O96020)
# assay notes: Inhibition of CDK2/Cyclin E (unknown origin) at 500 nM
# Format: protein-complex assay
attribute measured: inhibition (%)

CCNc1ncc2nc(NC3CCN(S(=O)(=O)N(C)C)CC3)c(=O)n(C3CCCC3)c2n1 :: 43.2

(A) CCS(=O)(=O)N1CCC(Nc2ncc3nc(NC)c(=O)n(C4CCCC4)c3n2)CC1
(B) CN(C)S(=O)(=O)N1CCC(Nc2ncc3nc(O)c(=O)n(C4CCCC4)c3n2)CC1
Select the item with the higher value of inhibition from the options A and B listed. Lab log: write the label of the selected item as the result.
A
(A: 45.4%, B: 15.8%)

(1) CNc1nc2cnc(NC3CCN(S(=O)(=O)C4CC4)CC3)nc2n(C2CCCC2)c1=O
(2) CCC(CC)n1c(=O)c(O)nc2cnc(NC3CCN(S(C)(=O)=O)CC3)nc21
Select the item with the higher value of inhibition from the options 1 and 2 listed. Lab log: write the label of the selected item as the result.
2
(2: 39.2%, 1: 9.2%)

###

# test target: Cyclin-dependent kinase 2/cyclin E (Homo sapiens) (UniProt P24864+P24941+O96020)
# assay notes: Inhibition of CDK2/Cyclin E (unknown origin) at 500 nM
# Type: protein-complex assay
attribute measured: inhibition (%)

CS(=O)(=O)N1CCC(Nc2ncc3nc(O)c(=O)n([C@@H]4CCC[C@H]4O)c3n2)CC1 :: 43
CS(=O)(=O)N1CCC(Nc2ncc3nc(O)c(=O)n(C4CCCC4)c3n2)CC1 :: 62.2

(1) CCS(=O)(=O)N1CCC(Nc2ncc3nc(O)c(=O)n(C4CCCC4)c3n2)CC1
(2) COc1nc2cnc(NC3CCN(S(=O)(=O)N(C)C)CC3)nc2n(C2CCCC2)c1=O
(3) O=c1c(O)nc2cnc(NC3CCN(S(=O)(=O)C4CC4)CC3)nc2n1C1CCCC1
Task field, ranking: reported inhibition, descending order. Please reply with the labels ordered as requested. Many thanks.
1, 2, 3
